Data provenance is the Human Domainome abundance scans (Beltran et al. 2025).

B1: POU domain, class 4, transcription factor 1, residues 266 to 347; numbered along this chain, Q01851 (parent)
chain: RELEAFAERFKQRRIKLGVTQADVGSALANLKIPGVGSLSQSTICRFESLTLSHNNMIALKPILQAWLEEAEGAQREKMNKP

- Variants of: B1
- Test Details: abundance fitness (aPCA) (normalised: wild type 0, dead -1); higher = more abundant; growth selection in yeast, the domain comes from the species named
- Condition Label: Homo sapiens
Entries are grouped by abundance fitness into these classes: low end (below -0.3), middle (-0.3 to below -0.01), high end (-0.01 or more)

Use the examples below as a reference point.
Sequence	Assigned Label
RELEAFAERFKQRRIKLGVTQADVGSALANLKIPGVGSLSQSTICRFESLTLSHNNMIACKPILQAWLEEAEGAQREKMNKP	high end
RELEAFAERFKQRRYKLGVTQADVGSALANLKIPGVGSLSQSTICRFESLTLSHNNMIALKPILQAWLEEAEGAQREKMNKP	low end

Now look at this entry.
Which class does "RELEAFAERFKQRRIKLGVTQADVGSALANLKIPGVGSLSHSTICRFESLTLSHNNMIALKPILQAWLEEAEGAQREKMNKP" fall in?
high end
